Below, each entry is listed with its recorded melting point.

Here is how some molecules turned out for melting point.
[[record]]
molecule = "C=CC(C)C1CCC2C3CCC4=CC(O)CCC4(C)C3CCC12C (centres undefined)"
value = "121 to 123 °C"

[[record]]
molecule = "Cc1nn(-c2ccccc2)nc1C(=O)N1CCC2(CC1)CSC1=C(O2)c2ccccc2C(=O)C1=O"
value = "275 to 280 °C"

[[record]]
molecule = "CCCCCCCCCCCCCCCCC(C(=O)NC1=NN(c2ccccc2)C(=O)C1C)S(=O)(=O)O (centres undefined)"
value = "240 °C"


Reported melting point for CCc1noc(-c2cn(-c3ccccc3OCCc3ccccc3)cn2)n1 was 61 °C
